// provenance: patent US20250250357A1

Overview of recorded Maximum_MFI for various binders
molecular target: T1, human MSLN on OVCAR3 tumor cells (human, UniProt Q13421 296-598); experiment: FACS, OVCAR3 cells
T1 construct: whole, on cells; also called human MSLN protein
T1 sequence (Q13421 other isoform, or with tags, fused parts or gaps): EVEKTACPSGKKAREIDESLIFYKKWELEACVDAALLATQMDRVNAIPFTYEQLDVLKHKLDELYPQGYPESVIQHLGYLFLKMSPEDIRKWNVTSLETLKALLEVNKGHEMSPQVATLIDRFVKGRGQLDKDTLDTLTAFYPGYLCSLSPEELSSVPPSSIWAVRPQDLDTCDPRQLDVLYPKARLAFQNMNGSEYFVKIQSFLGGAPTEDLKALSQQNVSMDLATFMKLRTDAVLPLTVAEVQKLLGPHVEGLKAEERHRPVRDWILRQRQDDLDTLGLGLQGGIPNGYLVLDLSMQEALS
Numeric answer only, unit MFI assumed.

So what's the measured Maximum_MFI for this one? F2.39.3-H2 (scFv, not shown: small tags and cut ends, also called S009-F2.39.3 humanized antibody VH1 + VL2) scFv: EVQLVQSGAEVKKPGASVKVSCKASGYTFTNYWMHWVRQAPGQGLEWMGNINPSSGDSYYNERFMSRVTMTVDKSTSTVYMELSSLRSEDTAVYYCARSGGLWLAFWGQGTLVTVSSGGGGSGGGGSGGGGSDIVMTQSPDSLAVSLGERATINCKSSQTLLNSVSQNNYLAWYQQKPGQSPTLLIYFASTRESGVPDRFSGSGSGTDFTLTISSLQAEDVAVYYCQQHYRTPYTFGGGTKVEIK
4220

Next entry: F2.23.12-H1 (scFv, not shown: small tags and cut ends, also called S009-F2.23.12 humanized antibody VH1 + VL1) scFv: EVQLVQSGAEVKKPGASVKVSCKASGYTFTNYWMHWVRQAPGQGLEWMGNINPSNGGPYYNERFRSRVTMTVDKSTSTVYMELSSLRSEDTAVYYCARPYYGSSYGYFDYWGQGTTVTVSSGGGGSGGGGSGGGGSDIQMTQSPSSLSASVGDRVTITCKASQDINKYIAWYQQKPGKAPKLLIHYTSELQPGVPSRFSGSGSGTDFTFTISSLQPEDIATYYCLQYANPLRTFGGGTKVEIK
3250

How about F2.23.12-H13 (scFv, not shown: small tags and cut ends, also called S009-F2.23.12 humanized antibody VH4 + VL1) scFv: EVQLVQSGAEVKKPGASVKVSCKASGYTFTNYWMHWVRQAPGQGLEWMGNINPSQGGPYYNERFRSRVTMTVDKSTSTAYMELSSLRSEDTAVYYCARPYYGSSYGYFDYWGQGTTVTVSSGGGGSGGGGSGGGGSDIQMTQSPSSLSASVGDRVTITCKASQDINKYIAWYQQKPGKAPKLLIHYTSELQPGVPSRFSGSGSGTDFTFTISSLQPEDIATYYCLQYANPLRTFGGGTKVEIK ?
3110

Then this binder: F2.39.3-H1 (scFv, not shown: small tags and cut ends, also called S009-F2.39.3 humanized antibody VH1 + VL1) scFv: EVQLVQSGAEVKKPGASVKVSCKASGYTFTNYWMHWVRQAPGQGLEWMGNINPSSGDSYYNERFMSRVTMTVDKSTSTVYMELSSLRSEDTAVYYCARSGGLWLAFWGQGTLVTVSSGGGGSGGGGSGGGGSDIVMTQSPDSLAVSLGERATINCKSSQTLLNSVSQNNYLAWYQQKPGQSPKLLIYFASTRESGVPDRFSGSGSGTDFTLTISSLQAEDVAVYYCQQHYRTPYTFGGGTKVEIK
4000

F2.39.3-H9 (scFv, not shown: small tags and cut ends, also called S009-F2.39.3 humanized antibody VH3 + VL1) scFv: EVQLVQSGAEVKKPGASVKVSCKASGYTFTNYWMHWVRQAPGQGLEWMGNINPSSGDSYYNERFMSRVTMTVDKSTSTAYMELSSLRSEDTAVYYCARSGGLWLAFWGPGTLVTVSSGGGGSGGGGSGGGGSDIVMTQSPDSLAVSLGERATINCKSSQTLLNSVSQNNYLAWYQQKPGQSPKLLIYFASTRESGVPDRFSGSGSGTDFTLTISSLQAEDVAVYYCQQHYRTPYTFGGGTKVEIK , same question.
4300
